viability, T/C listing for selected compounds.
# Test system: 616215-338-R-J1-PDC spheroids with HUVEC/MSC, viability;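 also: spheroids exposed to agents for seven days before the viability read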
# assay_notes: Anticancer human tumor 616215-338-R-J1-PDC patient-derived colon adenocarcinoma cell line growth inhibition [PI3K]
# study_conditions: second compound 0.316 µM; first compound 0.0316 µM; stronger effect = lower value
The reply should be a number in %, with the unit left off.

compound | viability, T/C, %
CC(=O)c1c(C)c2cnc(Nc3ccc(N4CCNCC4)cn3)nc2n(C2CCCC2)c1=O + COc1c(OCCCN2CCOCC2)ccc2c3n(c(=NC(=O)c4cnc(N)nc4)nc12)CCN3 | 37.7
Cn1ncc(Cl)c1-c1cc(C(=O)NC(CN)Cc2cccc(F)c2)sc1Cl (stereo unspecified) + COc1c(OCCCN2CCOCC2)ccc2c3n(c(=NC(=O)c4cnc(N)nc4)nc12)CCN3 | 45
Cn1ncc(Cl)c1-c1cc(C(=O)NC(CN)Cc2cccc(F)c2)sc1Cl (stereo unspecified) + CC(Nc1ccc2c(c1)OCCn1cc(N3C(=O)OCC3C(F)F)nc1-2)C(N)=O | 90.1
CC(=O)c1c(C)c2cnc(Nc3ccc(N4CCNCC4)cn3)nc2n(C2CCCC2)c1=O + CC(Nc1ccc2c(c1)OCCn1cc(N3C(=O)OCC3C(F)F)nc1-2)C(N)=O | 98
CC1(C)CCC(Nc2ncc(C(F)(F)F)c(-c3c[nH]c4c(P(C)(C)=O)c(C#N)ccc34)n2)CN1 (stereo unspecified) + CC(Nc1ncnc2nc[nH]c12)c1cc2cccc(Cl)c2c(=O)n1-c1ccccc1 | 44
CC1(C)CCC(CN2CCN(c3ccc(C(=O)NS(=O)(=O)c4ccc(NCC5CCOCC5)c([N+](=O)[O-])c4)c(Oc4cnc5[nH]ccc5c4)c3)CC2)=C(c2ccc(Cl)cc2)C1 + CC(Nc1ncnc2nc[nH]c12)c1cc2cccc(Cl)c2c(=O)n1-c1ccccc1 | 107
CC1(C)CCC(Nc2ncc(C(F)(F)F)c(-c3c[nH]c4c(P(C)(C)=O)c(C#N)ccc34)n2)CN1 (stereo unspecified) + COc1c(OCCCN2CCOCC2)ccc2c3n(c(=NC(=O)c4cnc(N)nc4)nc12)CCN3 | 29.9
CC1(C)CCC(CN2CCN(c3ccc(C(=O)NS(=O)(=O)c4ccc(NCC5CCOCC5)c([N+](=O)[O-])c4)c(Oc4cnc5[nH]ccc5c4)c3)CC2)=C(c2ccc(Cl)cc2)C1 + Cc1nc(NC(=O)N2CCCC2C(N)=O)sc1-c1ccnc(C(C)(C)C(F)(F)F)c1 | 98.5

Name the recorded viability, T/C for C[C@@H](NC(=O)c1ncnc(N)c1Cl)c1ncc(C(=O)Nc2cc(C(F)(F)F)c(Cl)cn2)s1 + CC(Nc1ccc2c(c1)OCCn1cc(N3C(=O)OCC3C(F)F)nc1-2)C(N)=O .
121

Queued: CC(C)n1nc(-c2ccc3oc(N)nc3c2)c2c(N)ncnc21 + COc1c(OCCCN2CCOCC2)ccc2c3n(c(=NC(=O)c4cnc(N)nc4)nc12)CCN3
35.5

Queued: C#Cc1c(F)ccc2cc(O)cc(-c3ncc4c(N5CC6CCC(C5)N6)nc(OCC56CCCN5CC(F)C6)nc4c3F)c12 (stereo unspecified) + CC(Nc1ccc2c(c1)OCCn1cc(N3C(=O)OCC3C(F)F)nc1-2)C(N)=O
100

Queued: Cn1ncnc1[C@H]1c2n[nH]c(=O)c3cc(F)cc(c23)N[C@@H]1c1ccc(F)cc1 + CC(Nc1ccc2c(c1)OCCn1cc(N3C(=O)OCC3C(F)F)nc1-2)C(N)=O
90

Queued: Cn1ncc(Cl)c1-c1cc(C(=O)NC(CN)Cc2cccc(F)c2)sc1Cl (stereo unspecified) + CC(Nc1ncnc2nc[nH]c12)c1cc2cccc(Cl)c2c(=O)n1-c1ccccc1
98.4

Queued: CNC(=O)c1ccc(N2C(=S)N(c3ccc(C#N)c(C(F)(F)F)c3)C(=O)C2(C)C)cc1F + Cc1nc(NC(=O)N2CCCC2C(N)=O)sc1-c1ccnc(C(C)(C)C(F)(F)F)c1
94

Queued: C=CC(=O)N1CCN(c2nc(=O)n(-c3c(C)ccnc3C(C)C)c3nc(-c4c(O)cccc4F)c(F)cc23)C(C)C1 (stereo unspecified) + CC(Nc1ccc2c(c1)OCCn1cc(N3C(=O)OCC3C(F)F)nc1-2)C(N)=O
114

Queued: CCCS(=O)(=O)Nc1ccc(F)c(C(=O)c2c[nH]c3ncc(-c4ccc(Cl)cc4)cc23)c1F + CC(Nc1ccc2c(c1)OCCn1cc(N3C(=O)OCC3C(F)F)nc1-2)C(N)=O
103

Queued: CNC(=O)c1ccc(N2C(=S)N(c3ccc(C#N)c(C(F)(F)F)c3)C(=O)C2(C)C)cc1F + COc1c(OCCCN2CCOCC2)ccc2c3n(c(=NC(=O)c4cnc(N)nc4)nc12)CCN3
50.8

Queued: C[C@@H](NC(=O)c1ncnc(N)c1Cl)c1ncc(C(=O)Nc2cc(C(F)(F)F)c(Cl)cn2)s1 + CC(Nc1ncnc2nc[nH]c12)c1cc2cccc(Cl)c2c(=O)n1-c1ccccc1
112

Queued: C[C@@H](NC(=O)c1ncnc(N)c1Cl)c1ncc(C(=O)Nc2cc(C(F)(F)F)c(Cl)cn2)s1 + Cc1nc(NC(=O)N2CCCC2C(N)=O)sc1-c1ccnc(C(C)(C)C(F)(F)F)c1
107

Queued: CC(C)NCC(C(=O)N1CCN(c2ncnc3c2C(C)CC3O)CC1)c1ccc(Cl)cc1 (stereo unspecified) + CC(Nc1ccc2c(c1)OCCn1cc(N3C(=O)OCC3C(F)F)nc1-2)C(N)=O
110

Queued: Cn1ncnc1[C@H]1c2n[nH]c(=O)c3cc(F)cc(c23)N[C@@H]1c1ccc(F)cc1 + Cc1nc(NC(=O)N2CCCC2C(N)=O)sc1-c1ccnc(C(C)(C)C(F)(F)F)c1
99.9

Value source: PubChem BioAssay AID1963978
